# SYSTEM_NAME: HA of H5N1 A/Vietnam/1194/04 (influenza A virus)
# EXPERIMENT: cell-based or functional assay
OBSERVABLE: VNA titer (nM)
A number alone suffices; assume nM.

BINDER	VNA titer / nM
SD1069 (VHH) VHH: EVQLVESGGGLVQAGDSLRLSCAASGPTFGMSAMGWFRQAPGKEREFVAAISGLGNPNYSDDVKGRFTISRENGRNTVYLQMNSLKPEDTAVYYCAQRKVYHVQGGDRPQAYDYWGQGTQVTVSS	74

Enquiry: I would be grateful if you could share the reported VNA titer for SD1071 (VHH) VHH: EVQLVESGGGLVQTGESLRLSCAFSGFTYSTYWMYWVRQGPEKGLKWVSSTNAAGTVTYYAANVRDRFTASKDNAKNTLYLQMNRLKPEDTGLYYCASKDGLIVAATLDDYDYRGQGTQVTVSS .
Return: 111

Enquiry: Now consider SD1072 (VHH) VHH: EVQLVESGGGLVEAGGSLRLSCAVSGRTFSMYATGWFRQAPGKEREFVAAINSSGDKTTYADSVEGRFTISRDIGTVYLQMNNLNPEDTAVYYCAAARTLAVVTIPGGYEYWGQGTQVTVSS .
Return: 444

Enquiry: Now consider SD1076 (VHH) VHH: EVQLVESGGGLVQAGGSLTLSCAGSGFAFSIATMGWYRQAPGKQRELVADITSGGSTNYADSVKGRFTISRDNAKNTVYLQMNSLKPEDTAVYYCNADSLATGWRQYSYWGKGTQVTVSS .
Return: 84.7

Enquiry: Now consider SD1018 (VHH) VHH: EVQLVESGGGLVQAGGSLRLSCAASGQTYHMGWFRQTPGNERESVAAVTWSGAVTRYADSVKGRFTISRDNAKNTVYLQMNSLVPEDTAIYYCAATRSMAPIIQLSPGSYDYWGPGTQVTVSS .
Return: 615
